For each entry below, report its MIC value.
Tested on: Staphylococcus aureus
method: Antibacterial activity against Staphylococcus aureus UC-96 by gradient plate test
Type: functional

Report MIC for every entry below.
1. Cc1cc(Sc2ccc3nc(N)nc(N)c3c2)ccc1Br
2. Nc1nc(N)c2cc(Sc3cccc4ccccc34)ccc2n1
3. Nc1nc(N)c2c(Cl)c(Sc3ccc4ccccc4c3)ccc2n1
4. Nc1nc(N)c2c(Cl)c(Sc3ccccc3Cl)ccc2n1
5. Nc1nc(N)c2cc(Sc3cc(Cl)cc(Cl)c3)ccc2n1
6. COc1cccc(Sc2ccc3nc(N)nc(N)c3c2)c1
7. Cc1ccc(Sc2ccc3nc(N)nc(N)c3c2)cc1
8. Nc1nc(N)c2cc(Sc3ccc(O)cc3)ccc2n1

5 µg/mL
2.5 µg/mL
1.5 µg/mL
< 0.25 µg/mL
< 0.25 µg/mL
< 0.25 µg/mL
< 0.25 µg/mL
< 0.25 µg/mL

Hey, can you go through the list below and give me MIC for every item?
1. Cc1cccc(Sc2ccc3nc(N)nc(N)c3c2)c1
2. Nc1nc(N)c2cc(Sc3cc(Cl)ccc3Cl)ccc2n1
3. Nc1nc(N)c2cc(Sc3ccccc3Cl)ccc2n1
4. Cc1ccccc1Sc1ccc2nc(N)nc(N)c2c1

1: < 0.25 µg/mL; 2: < 0.25 µg/mL; 3: < 0.25 µg/mL; 4: < 0.25 µg/mL

# batch size: 4; output MIC per entry
1. Cc1c(Sc2ccc3ccccc3c2)ccc2nc(N)nc(N)c12
2. Nc1nc(N)c2cc(Sc3ccccc3)ccc2n1
3. COc1ccc(Sc2ccc3nc(N)nc(N)c3c2)cc1
4. Nc1nc(N)c2cc(Sc3ccccc3-c3ccccc3)ccc2n1

< 2.5 µg/mL
< 0.25 µg/mL
< 0.25 µg/mL
< 0.25 µg/mL

Hi! Can you tell me MIC for each of these compounds?
1. Cc1ccc(Cl)cc1Sc1ccc2nc(N)nc(N)c2c1
2. Nc1nc(N)c2cc(Sc3c(Cl)c(Cl)c(Cl)c(Cl)c3Cl)ccc2n1

1. < 0.25 µg/mL
2. 10 µg/mL

Please give MIC, item by item, for the list that follows.
1. CN(C)c1ccc(Sc2ccc3nc(N)nc(N)c3c2)cc1
2. CC(C)(C)c1ccc(Sc2ccc3nc(N)nc(N)c3c2)cc1

< 0.25 µg/mL
< 0.25 µg/mL

---

Test system: Plasmodium gallinaceum
method: Antimalarial activity against trophozoite-induced Plasmodium gallinaceum infected in white leghorn chicken assessed as increase in mean survival days of host at 2.5 mg/kg, sc administered 72 hrs after infection relative to control
Type: functional
condition label: route subcutaneous
property label: MST (days)
Answers are plain numbers, in days.

Please give MST, item by item, for the list that follows.
1. Nc1nc(N)c2cc(Sc3cccc4ccccc34)ccc2n1
2. CN(Cc1ccc(Cl)c(Cl)c1)c1ccc2nc(N)nc(N)c2c1
3. CN(C)c1ccc(Sc2ccc3nc(N)nc(N)c3c2)cc1
4. Cc1ccc(Cl)cc1Sc1ccc2nc(N)nc(N)c2c1
5. Cc1ccccc1Sc1ccc2nc(N)nc(N)c2c1
6. Nc1nc(N)c2cc(Sc3ccc(F)cc3)ccc2n1

1: 9; 2: 6; 3: 12.6; 4: 1.4; 5: 0; 6: 3.2

---

System: Plasmodium gallinaceum
method: Antimalarial activity against sporozoite-induced Plasmodium gallinaceum infected in white leghorn chicken assessed as increase in mean survival days of host at 15 mg/kg, sc administered 72 hrs after infection relative to control
Assay type: functional
condition label: route subcutaneous
Hi there, I'd appreciate the recorded MST for every entry that follows.
Answers are plain numbers, in days.

# per-item lookup of MST; items listed below
1. CC(=O)O.Nc1nc(N)c2cc(NCc3ccc(Cl)c(Cl)c3)ccc2n1
2. Nc1nc(N)c2cc(Sc3ccccc3-c3ccccc3)ccc2n1
3. CC1(C)N=C(N)N=C(N)N1c1ccc(Cl)cc1.Cl [CHLORCYCLOGUANIL HYDROCHLORIDE]
4. CC(=O)O.Nc1nc(N)c2cc(N(Cc3ccc(Cl)c(Cl)c3)N=O)ccc2n1
5. Nc1nc(N)c2cc(Sc3c(F)c(F)cc(F)c3F)ccc2n1
6. Nc1nc(N)c2cc(Sc3cccc(-c4ccccc4)c3)ccc2n1
7. Nc1nc(N)c2cc(Sc3ccc(O)cc3)ccc2n1

1. 3.1
2. 0
3. 0
4. 0
5. 1.7
6. 0.7
7. 4.7

---

I'd be grateful if you could share measured MST for these entries.
Tested on: Plasmodium gallinaceum
method: Antimalarial activity against trophozoite-induced Plasmodium gallinaceum infected in white leghorn chicken assessed as increase in mean survival days of host at 1.25 mg/kg, sc administered 72 hrs after infection relative to control
Format: functional
condition label: route subcutaneous
Give bare numbers, in days.

// known answers, use as guide
- compound smiles: "Nc1nc(N)c2cc(Sc3cccc4ccccc34)ccc2n1"
  MST [days]: 7.2
- compound smiles: "Cc1ccccc1Sc1ccc2nc(N)nc(N)c2c1"
  MST [days]: 0
- compound smiles: "Cc1ccc(Cl)cc1Sc1ccc2nc(N)nc(N)c2c1"
  MST [days]: 0
- compound smiles: "Cc1cccc(Sc2ccc3nc(N)nc(N)c3c2)c1"
  MST [days]: 0
- compound smiles: "CN(Cc1ccc(Cl)c(Cl)c1)c1ccc2nc(N)nc(N)c2c1"
  MST [days]: 1.4
- compound smiles: "CN(C)c1ccc(Sc2ccc3nc(N)nc(N)c3c2)cc1"
  MST [days]: 10.4

Can you give me MST for all of these, one by one?
1. Nc1nc(N)c2cc(Sc3ccc(Br)cc3)ccc2n1
2. Nc1nc(N)c2cc(Sc3ccc(F)cc3)ccc2n1
3. Nc1nc(N)c2cc(Sc3cccc(-c4ccccc4)c3)ccc2n1

1. 3
2. 0
3. 0

---

System: Plasmodium berghei
method: Antimalarial activity against Plasmodium berghei infected in mouse assessed as increase in mean survival days of host at 80 mg/kg, sc administered 72 hrs after infection relative to control
Assay type: functional
condition label: route subcutaneous
So I've got a bunch of compounds here, and I need their MST values.
Give bare numbers, in days.

- compound smiles: "Nc1nc(N)c2c(Cl)c(Sc3cccc(C(F)(F)F)c3)ccc2n1"
  tested system: "Plasmodium berghei"
  property label: "MST"
  observed result: 19.9
- compound smiles: "Nc1nc(N)c2cc(Sc3ccccc3Cl)ccc2n1"
  tested system: "Plasmodium berghei"
  property label: "MST"
  observed result: 8.1
- compound smiles: "Nc1nc(N)c2cc(Sc3cc(Cl)ccc3Cl)ccc2n1"
  tested system: "Plasmodium berghei"
  property label: "MST"
  observed result: 9.8
- compound smiles: "Nc1nc(N)c2cc(Sc3c(F)c(F)cc(F)c3F)ccc2n1"
  tested system: "Plasmodium berghei"
  property label: "MST"
  observed result: 8.9
- compound smiles: "Cc1cc(Sc2ccc3nc(N)nc(N)c3c2)ccc1Br"
  tested system: "Plasmodium berghei"
  property label: "MST"
  observed result: 11.9
- compound smiles: "CC(C)(C)c1ccc(Sc2ccc3nc(N)nc(N)c3c2)cc1"
  tested system: "Plasmodium berghei"
  property label: "MST"
  observed result: 6
- compound smiles: "Nc1nc(N)c2cc(Sc3cccc(Cl)c3)ccc2n1"
  tested system: "Plasmodium berghei"
  property label: "MST"
  observed result: 4.3
- compound smiles: "Nc1nc(N)c2cc(Sc3ccc(-c4ccccc4)cc3)ccc2n1"
  tested system: "Plasmodium berghei"
  property label: "MST"
  observed result: 15.6
- compound smiles: "Nc1nc(N)c2cc(Sc3ccc(Cl)cc3)ccc2n1"
  tested system: "Plasmodium berghei"
  property label: "MST"
  observed result: 25.8
- compound smiles: "Cc1cccc(Sc2ccc3nc(N)nc(N)c3c2)c1"
  tested system: "Plasmodium berghei"
  property label: "MST"
  observed result: 7.7

Provide the reported MST of each entry below, same order.
1. Nc1nc(N)c2cc(Sc3ccc(O)cc3)ccc2n1
2. CC(=O)O.Nc1nc(N)c2cc(NCc3ccc(Cl)c(Cl)c3)ccc2n1

1: 10.9; 2: 12.9

---

Tested on: Plasmodium berghei
method: Antimalarial activity against Plasmodium berghei infected in mouse assessed as increase in mean survival days of host at 80 mg/kg, sc administered 72 hrs after infection relative to control
Assay type: functional
condition label: route subcutaneous
Exercise: state measured MST for each of the compounds provided.
Answers are plain numbers, in days.

Worked cases, MST given:
- compound: "Nc1nc(N)c2cc(Sc3cccc4ccccc34)ccc2n1"
  MST, days: 18.4
- compound: "CC1(C)N=C(N)N=C(N)N1c1ccc(Cl)cc1.Cl [CHLORCYCLOGUANIL HYDROCHLORIDE]"
  MST, days: 21.6
- compound: "Nc1nc(N)c2cc(Sc3ccccc3)ccc2n1"
  MST, days: 9.7
- compound: "Nc1nc(N)c2cc(Sc3ccccc3-c3ccccc3)ccc2n1"
  MST, days: 3.3
- compound: "Nc1nc(N)c2c(Cl)c(Sc3ccccc3Cl)ccc2n1"
  MST, days: 11.7
- compound: "Cc1ccc(Sc2ccc3nc(N)nc(N)c3c2)cc1"
  MST, days: 9.7
- compound: "CC(=O)Nc1ccc(Sc2ccc3nc(N)nc(N)c3c2)cc1"
  MST, days: 24.9
- compound: "COc1cccc(Sc2ccc3nc(N)nc(N)c3c2)c1"
  MST, days: 8.3

Consider now this further compound.
Give the measured MST of `Nc1nc(N)c2cc(Sc3cc(Cl)cc(Cl)c3)ccc2n1` . 12.7
